These measurements were taken from patent US10272095B2.

# Tested on: NQO1 specific enzyme activity in BEAS-2B cells
# Measurement protocol: BEAS-2B NQO1 MTT assay
# Assay type: cell-based
# Experimental setup: Homo sapiens, BEAS-2B, 48 h, NQO1 specific enzyme activity induction in BEAS-2B cells, 48 hours; read-out: EC50
Where a name gives a salt, the structure may show the parent alone.
Recorded EC50 values for a group of compounds are listed next.

Exercise: Fill in: EC50 of CC[C@@H]1CN([C@@H]2CCc3ccc(C(c4ccc5c(nnn5C)c4C)C(C)(C)C(=O)O)cc32)Cc2cnccc2O1 (relative stereo) [Example 75] is ___
Solution: 10 to 100 nM

Exercise: Data request, read-out EC50, for COc1cc(C(CC(=O)O)c2ccc3c(c2)C(N2Cc4cccnc4OC(C)(C)C2)CC3)c(C)c2nnn(C)c12 (stereo not drawn) [Example 44, Formic Acid Salt]
Solution: 1 to 10 nM

Exercise: Quick one: EC50 of Cc1c(C(CC(=O)O)c2ccc3c(c2)C(N2Cc4cc(Cl)ccc4OC(C)(C)C2)CC3)ccc2c1nnn2C (stereo not drawn) [Example 21, Formic Acid Salt] ?
Solution: 1 to 10 nM
